- System: SW-620 colon
- method-notes: NCI-60 one-dose screen, 48 h (100 = growth as untreated, 0 = no growth, -100 = all killed)
- study-conditions: 10 µM unless noted
Compounds without any hit were thinned out: in the full panel of roughly 83,000, 20% have a hit.
measurement-label: growth (%)

1. COc1cc(-c2nn(-c3ccccc3)cc2-c2ccnc(NCCNS(=O)(=O)c3ccc(Cl)cc3)n2)ccc1Cl = 51.1
2. COc1ccc(C2=NN(C(=O)c3cc(OC)c(OC)c(OC)c3)C(c3ccc(Cl)cc3)C2)cc1OC (stereo not drawn) = 30.1
3. COc1cc(C(=O)/C=C/c2c(-c3ccc(F)cc3)nc3sc(C)cn23)cc(OC)c1OC = 30.6
4. Nc1n[nH]c2cc(F)c([C@@H]3Nc4c(F)cc5[nH]ncc5c4[C@H]4C5CCC(C5)[C@@H]34)cc12 (stereo partly drawn) = 26.8
5. COc1ccc(N2CCN(c3nc(-c4cc(OC)c(OC)c(OC)c4)nc4ccccc34)CC2)cc1 = 85.6
6. CCN(CC)CCCCCCNc1cc(OC)c(Cl)c2cccnc12 = 81.2
7. N#C/C(=C\c1ccc(Br)cc1)n1nnc2cc(F)c(F)cc21 = 13.2
8. O=c1c2cc(F)ccc2sc2c(NCCCN3CCCC3)nc3ccccc3c12 = 20.4

###

Item-by-item account of growth
- Tested on: NCI/ADR-RES ovarian
- method-notes: NCI-60 one-dose screen, 48 h (100 = growth as untreated, 0 = no growth, -100 = all killed)
- study-conditions: 10 µM unless noted
Compounds without any hit were thinned out: in the full panel of roughly 83,000, 20% have a hit.
measurement-label: growth (%)

1) COc1ccc(-c2nc3c(N)c(CO)c(C)nc3o2)cc1 = 89.7
2) CCOC(=O)c1csc(NC(=O)COc2cccc(/C=C3\Oc4cc(OC)ccc4C3=O)c2)n1 = 79.4
3) CCOC(CN=Cc1cc(C)c2[nH]c3ccccc3c2c1C)OCC = 101

###

- System: UO-31 renal
- method-notes: NCI-60 one-dose screen, 48 h (100 = growth as untreated, 0 = no growth, -100 = all killed)
- study-conditions: 10 µM unless noted
About 83,000 compounds went through this panel and 20% of them were active in at least one assay; those are over-represented in the sample as a whole.
# label = bin(measured growth), where bins are Low = under 30%, Medium = from 30% up to 70%, High = 70% and over

1) COc1c(CCC[P+](c2ccccc2)(c2ccccc2)c2ccccc2)cc2c(c1OC)OCO2 = High
2) COCCc1ccc(OCC(O)CNC(C)C)cc1 (stereo unspecified) = High
3) O=C(COc1ccc(/C=C2\Oc3ccccc3C2=O)cc1)Nc1nc2c(s1)CCCC2 = Low
4) CC(CN1CCCCC1)C(=O)c1ccccc1 (stereo unspecified) = High
5) COc1ccc(NC(=O)CSc2nnc(-c3cc(-c4ccc(S(N)(=O)=O)cc4)nc4ccccc34)n2-c2ccccc2)cc1 = High
6) Clc1cc(Cl)cc(Nc2ccc3cc(OCCCN4CCOCC4)ccc3n2)c1 = Low
7) COc1cc(/C=C/C(=O)c2c(C)nc3ccccc3c2/C=C/c2ccc(C)cc2)cc(OC)c1OC = Medium
8) O=c1c2c3c(sc2nc(N/N=C/c2ccc(Br)cc2)n1Cc1ccccc1)CCCC3 = Medium
9) Cn1c(I)c(C#C[Si](C)(C)C)c(=O)n(C(=O)c2ccccc2)c1=O = Low
10) CNC(=O)NCC1OC(n2cnc3c(NC(=O)Nc4ccccc4)ncnc32)C(O[Si](C)(C)C(C)(C)C)C1CC(=O)N(C)OC (stereo unspecified) = Low
11) CC1(C)CC[C@]2(C(=O)N3CCOCC3)CC[C@]3(C)C(=CC[C@@H]4[C@@]5(C)CC[C@H](OC(=O)c6cccnc6)C(C)(C)[C@@H]5CC[C@]43C)[C@@H]2C1 = Medium
